# System: Bacillus spizizenii
# assay-remarks: Antimicrobial activity against Bacillus subtilis subsp. spizizenii ATCC 6633 after 24 hr by agar diffusion method; note: test concentration or dose not given here
# Assay type: functional
endpoint-name: inhibition zone (IZ)

Worked cases, inhibition zone (IZ) given:
compound | inhibition zone (IZ)
Cc1nc(N/N=C\c2cn(-c3ccccc3)nc2-c2cccs2)sc1/N=N/c1ccc(F)cc1 | 22 mm
Cc1ccc(NC(=S)N2N=C(c3ccc(Cl)cc3)CC2c2cn(-c3ccccc3)nc2-c2cccs2)cc1 (centres undefined) | 21 mm
O=C1CS/C(=N\N=C/c2cn(-c3ccccc3)nc2-c2cccs2)N1 | 19 mm
C(=N/Nc1nc(-c2cc3ccccc3o2)cs1)/c1cn(-c2ccccc2)nc1-c1cccs1 | 23 mm
Clc1ccc(C2=NNC(c3cn(-c4ccccc4)nc3-c3cccs3)C2)cc1 (centres undefined) | 17 mm

Challenge: Identify inhibition zone (IZ) associated with the compound NC(=S)N/N=C\c1cn(-c2ccccc2)nc1-c1cccs1
Response given: 29 mm

Challenge: Identify inhibition zone (IZ) associated with the compound O=C(/C=C/c1cn(-c2ccccc2)nc1-c1cccs1)c1ccc(Cl)cc1
Response given: 21 mm

Challenge: Identify inhibition zone (IZ) associated with the compound O=C(O)c1cn(C2CC2)c2cc(N3CCNCC3)c(F)cc2c1=O
Response given: 22 mm
